experimental_details: Solubilities of each carboxylic acid in water
experimental_setup: 30° C.
assay_endpoint: solubility in water

Give solubility in water for the following compound: `O=C(O)/C=C\C(=O)O`
88 g is dissolved in water 100 g at

Kindly consider the entry below.
// Input: O=C(O)C(O)c1ccccc1 (stereo not shown) . Output its solubility in water only.
37.5 g is dissolved in water 100 g
